Recorded RUNX1 binding intensity values for a group of sequences are listed next.
Test target: RUNX1 (UniProt Q01196)
Sequence (Q01196 whole entry): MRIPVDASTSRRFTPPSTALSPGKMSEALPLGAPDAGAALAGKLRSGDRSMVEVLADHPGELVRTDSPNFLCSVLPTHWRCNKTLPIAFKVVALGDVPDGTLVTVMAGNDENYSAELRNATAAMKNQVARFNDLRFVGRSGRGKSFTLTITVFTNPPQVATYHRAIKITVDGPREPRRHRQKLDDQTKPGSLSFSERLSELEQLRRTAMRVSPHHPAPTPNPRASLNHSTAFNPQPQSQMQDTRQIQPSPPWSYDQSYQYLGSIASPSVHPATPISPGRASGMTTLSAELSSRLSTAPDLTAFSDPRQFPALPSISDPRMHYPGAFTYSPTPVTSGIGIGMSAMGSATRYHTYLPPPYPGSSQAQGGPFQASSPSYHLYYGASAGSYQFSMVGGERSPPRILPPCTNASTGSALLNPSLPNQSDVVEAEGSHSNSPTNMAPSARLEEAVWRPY
Experiment notes: RUNX1 binding intensity (PBM fluorescence) in presence of ETS1, normalised to RUNX1-only experiment (arbitrary fluorescence units); higher = stronger binding;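 note: Full-length recombinant human ETS1 or RUNX1 bound to double-stranded 36-bp genomic probes on microarrays, detected by protein-specific primary antibody and Alexa488 secondary, spot fluorescence as median of four replicate spots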
Run conditions: RUNX1 concentration 2 nM; ETS1 concentration 25 nM
Give the figure by itself; no unit, no explanation.

Here's what some known entries look like.
Query string: I'm curious: which RUNX1 binding intensity was measured for GACAGTCATGTTTCAGGATGTGGTTTTAGCCAAAGG tested on RUNX1 (UniProt Q01196)?
Result string: 1710

Query string: Also need CATGGTGGTGACGCAGGATGTGGTGGTGGTGTAGAA , thanks.
Result string: 937

Query string: Moving on to GGCCCTTCTGGGGCAGGATGTGGTGCCTGCCAAAGG
Result string: 891

Query string: Now the same for AGGAGCCGGAAGTCCCGCCCACGCACCCCCCGCAGG
Result string: 1770

Query string: Item: CTGAGCCGGATGTTACTGGTTAGTGGTTTTCTTTAT
Result string: 1560

Query string: Then this sequence: GCTCATTTATGCATCCTGTGGTCTGTGTGTGTTTCG
Result string: 1390

Query string: Try the sequence TCCGGAAATAGATAATATCTAGTTAAACCTCAAAAT
Result string: 965

Query string: AGAGCCACATCCCGCGCAGAGGACCGCGGCGACCGG , same question.
Result string: 927

Query string: Also, TGCAGTCGTGAAAAAGGAAGTGGTTAAAGTGGCTAC please.
Result string: 1600

Query string: Next up: CTTACCTACAGTTCCGCTTGCTGTGGTTTCAGTTAC
Result string: 2060

***
Query string: What is its RUNX1 binding intensity for RUNX1 (UniProt Q01196)? Entry: GAGTCGCTTCCGCTCCCGCCCCGCTCTGTGGCGTAG
Result string: 1980

Query string: Now this one: CAGCTCTCTCGCTTCCTGTGGTGTAAACATGAAGCA
Result string: 1500
